Target: T1, human GIP receptor (human) (UniProt P48546)
T1 sequence (looked up): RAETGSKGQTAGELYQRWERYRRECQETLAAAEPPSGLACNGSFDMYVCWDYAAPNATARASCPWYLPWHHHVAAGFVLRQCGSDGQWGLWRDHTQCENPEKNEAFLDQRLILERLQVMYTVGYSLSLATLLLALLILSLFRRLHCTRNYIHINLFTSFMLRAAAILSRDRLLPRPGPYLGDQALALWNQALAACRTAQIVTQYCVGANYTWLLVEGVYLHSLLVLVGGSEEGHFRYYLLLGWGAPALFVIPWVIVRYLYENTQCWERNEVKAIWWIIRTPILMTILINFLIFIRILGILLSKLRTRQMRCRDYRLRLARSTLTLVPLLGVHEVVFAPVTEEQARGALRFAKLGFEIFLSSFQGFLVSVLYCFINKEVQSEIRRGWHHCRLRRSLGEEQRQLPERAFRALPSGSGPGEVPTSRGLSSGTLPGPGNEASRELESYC
Assay: cell-based or functional assay
Measured cAMP EC50, listed per entry.
Readout type: cAMP EC50 (pM)

[
  {
    "Binder": "IP301 (Fc fusion) YSEGTFTSDVSSYLEREAIDEFIAWLLKGGAAAGGSGSTASSGSGSATGGGGAATHTCPPC",
    "Unit info": "pM",
    "Test result": 120
  },
  {
    "Binder": "IP387 (Fc fusion) YSEGTFISDYSIAMDKIHQQDFVNWLLAQKGGGGGSGGGGSGGGGSGGGGSGGGGSGGGGSGGGGSGGGGSACPPC",
    "Unit info": "pM",
    "Test result": 4.5
  },
  {
    "Binder": "IP381 (Fc fusion) YSEGTFTSDYSKLLEEEAVRLFIEYLLAGGGGGGSGGGGSGGGGSGGGGSATHTCPPC",
    "Unit info": "pM",
    "Test result": 9.9
  }
]
